experiment: Luminescence Cell-Based Dose Retest to Confirm Inhibitors of Cancer Stem Cells. [Related pubchem assays (depositor defined):AID2717, AID2721]; format: functional; conditions: Homo sapiens
Activity calls are given as the source filed them.
measured-parameter: AC50

Here are 2 compounds together with their reported answers.
- compound: "CCCCNc1c(-c2cccc(Sc3ccc(OC)cc3)c2)nc2ccccn12"
  AC50: "5220 nM (active)"
- compound: "CC[C@H]1CC2CN3CCc4c([nH]c5c([C@H]6C[C@H]7[C@H](CC)CN(C)[C@@H](Cc8c6[nH]c6ccccc86)[C@H]7C(=O)OC)c(OC)ccc45)C(C(=O)OC)(C2)C13"
  AC50: "1990 nM (active)"

Okay, next one:
# input Need AC50 of CCC1=NN(C(=O)c2cccc(Br)c2)C(O)(c2ccc(Br)cc2)C1 (stereo not drawn) , thanks.
# output 634 nM (active)

---

molecular target: Fatty acid synthase (Homo sapiens, UniProt P49327); assay: inhibition of human FAS-TE enzyme activity – biochemical, endpoint fluorescence intensity, uHTS hits, dose response (AID 624327); type: functional;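 further: fluorescence from hydrolysis of an O-methyl fluorescein acyl ester substrate by the enzyme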
Sequence (P49327 whole entry): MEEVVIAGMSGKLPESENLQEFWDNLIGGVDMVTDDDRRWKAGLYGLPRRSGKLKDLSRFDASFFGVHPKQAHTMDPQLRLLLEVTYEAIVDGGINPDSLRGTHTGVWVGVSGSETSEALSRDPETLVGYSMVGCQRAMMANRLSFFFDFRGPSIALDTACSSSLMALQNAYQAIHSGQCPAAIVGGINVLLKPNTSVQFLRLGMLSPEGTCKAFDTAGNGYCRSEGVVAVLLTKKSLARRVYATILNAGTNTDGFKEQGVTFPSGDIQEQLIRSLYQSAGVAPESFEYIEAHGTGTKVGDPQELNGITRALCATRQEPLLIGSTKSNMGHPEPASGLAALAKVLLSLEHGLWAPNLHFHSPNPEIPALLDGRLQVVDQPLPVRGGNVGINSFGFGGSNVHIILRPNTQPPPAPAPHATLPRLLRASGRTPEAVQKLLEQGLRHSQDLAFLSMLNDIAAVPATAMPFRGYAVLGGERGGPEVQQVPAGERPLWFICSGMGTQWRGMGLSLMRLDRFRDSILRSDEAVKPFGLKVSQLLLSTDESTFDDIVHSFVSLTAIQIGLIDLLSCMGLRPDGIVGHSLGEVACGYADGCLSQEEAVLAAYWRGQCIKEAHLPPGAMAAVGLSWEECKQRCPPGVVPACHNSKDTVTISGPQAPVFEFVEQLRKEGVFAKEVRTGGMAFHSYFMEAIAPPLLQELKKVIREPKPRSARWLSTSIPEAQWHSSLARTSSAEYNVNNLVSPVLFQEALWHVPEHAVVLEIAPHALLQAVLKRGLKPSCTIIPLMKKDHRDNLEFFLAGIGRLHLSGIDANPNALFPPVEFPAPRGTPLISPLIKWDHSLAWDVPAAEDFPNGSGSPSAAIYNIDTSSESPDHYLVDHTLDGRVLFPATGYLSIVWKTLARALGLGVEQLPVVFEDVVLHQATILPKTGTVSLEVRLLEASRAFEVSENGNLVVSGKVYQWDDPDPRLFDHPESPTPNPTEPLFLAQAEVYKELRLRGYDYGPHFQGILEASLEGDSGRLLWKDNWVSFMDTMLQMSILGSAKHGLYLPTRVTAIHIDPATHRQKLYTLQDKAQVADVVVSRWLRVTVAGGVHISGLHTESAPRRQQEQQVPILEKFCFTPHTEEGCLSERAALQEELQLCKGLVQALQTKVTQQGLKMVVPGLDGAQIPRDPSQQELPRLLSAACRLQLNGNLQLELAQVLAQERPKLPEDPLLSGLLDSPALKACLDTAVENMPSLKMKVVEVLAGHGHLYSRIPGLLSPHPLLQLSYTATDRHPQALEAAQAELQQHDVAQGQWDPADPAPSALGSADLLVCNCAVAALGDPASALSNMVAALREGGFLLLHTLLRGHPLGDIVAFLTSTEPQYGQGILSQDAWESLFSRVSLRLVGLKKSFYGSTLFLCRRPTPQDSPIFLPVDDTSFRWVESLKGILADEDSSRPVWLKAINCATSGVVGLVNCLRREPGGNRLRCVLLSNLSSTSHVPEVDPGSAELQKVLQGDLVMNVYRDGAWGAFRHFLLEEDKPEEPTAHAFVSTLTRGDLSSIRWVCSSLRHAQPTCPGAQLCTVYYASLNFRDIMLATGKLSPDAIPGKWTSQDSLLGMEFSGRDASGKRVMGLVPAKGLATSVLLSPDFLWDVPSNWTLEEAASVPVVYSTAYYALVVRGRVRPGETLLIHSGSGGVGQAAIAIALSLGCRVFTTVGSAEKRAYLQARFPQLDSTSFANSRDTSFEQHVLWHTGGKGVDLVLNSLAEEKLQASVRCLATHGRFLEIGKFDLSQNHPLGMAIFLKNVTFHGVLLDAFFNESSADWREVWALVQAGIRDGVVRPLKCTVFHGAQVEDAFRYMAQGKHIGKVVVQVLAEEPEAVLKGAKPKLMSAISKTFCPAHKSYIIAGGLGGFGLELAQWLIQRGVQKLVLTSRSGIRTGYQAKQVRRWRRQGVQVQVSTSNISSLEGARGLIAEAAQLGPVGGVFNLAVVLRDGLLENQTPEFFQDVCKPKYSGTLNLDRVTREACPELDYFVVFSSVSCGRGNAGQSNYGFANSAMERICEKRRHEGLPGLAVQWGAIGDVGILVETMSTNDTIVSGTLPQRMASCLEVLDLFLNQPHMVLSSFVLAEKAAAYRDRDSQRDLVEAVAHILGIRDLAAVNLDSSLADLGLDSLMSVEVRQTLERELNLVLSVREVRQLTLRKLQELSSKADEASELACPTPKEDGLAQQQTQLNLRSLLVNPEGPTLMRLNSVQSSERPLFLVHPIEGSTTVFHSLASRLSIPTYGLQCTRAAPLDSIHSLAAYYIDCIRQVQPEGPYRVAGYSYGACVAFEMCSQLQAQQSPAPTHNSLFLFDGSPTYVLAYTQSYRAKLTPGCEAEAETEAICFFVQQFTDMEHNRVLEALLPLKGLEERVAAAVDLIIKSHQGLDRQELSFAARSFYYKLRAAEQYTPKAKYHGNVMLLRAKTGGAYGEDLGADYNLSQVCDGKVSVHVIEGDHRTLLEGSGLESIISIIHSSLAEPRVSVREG
Active and inactive are the calls of the source.
measured-parameter: IC50

Before answering, review these 2 worked examples.
- cpd-smiles: "COc1ccc(/C=C(\\NC(=O)c2ccc([N+](=O)[O-])cc2)C(=O)NCCCn2ccnc2)cc1"
  IC50: "2.35 µM (active)"
- cpd-smiles: "Oc1c(Br)c(Br)c(Br)c(Br)c1Br"
  IC50: "6.27 µM (active)"

With those in mind, consider the next compound.
# input Look up IC50: Cc1ccc(NC(=O)C2=C(c3ccccc3)S(=O)(=O)CCS2(=O)=O)cc1
# output 3.96 µM (active)

---

Target: Carboxy-terminal domain RNA polymerase II polypeptide A small phosphatase 1 (Homo sapiens, UniProt Q9GZU7)
Sequence (Q9GZU7 whole entry): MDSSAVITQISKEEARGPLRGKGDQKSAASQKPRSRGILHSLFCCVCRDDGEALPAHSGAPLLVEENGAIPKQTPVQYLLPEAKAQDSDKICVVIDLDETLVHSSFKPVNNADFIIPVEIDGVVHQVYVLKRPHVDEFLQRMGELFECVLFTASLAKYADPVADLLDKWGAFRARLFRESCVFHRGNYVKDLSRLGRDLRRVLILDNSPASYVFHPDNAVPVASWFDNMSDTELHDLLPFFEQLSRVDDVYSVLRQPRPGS
Experiment: CTDSP1 inhibitors, concentration-response, biochemical, absorbance readout, ultra-high-throughput screen actives (AID 540297)
Type: functional
Calls of active or inactive are those of the source.
measured-parameter: IC50

- cpd-smiles: "COc1cc(/C=C(/C#N)C(=O)Nc2ccccc2)ccc1OCc1ccc(C(=O)O)cc1"
  IC50: "3.34 µM (active)"
- cpd-smiles: "N=C1/C(=C\\c2ccc(Br)o2)C(=O)N=C2SC(CC(=O)N3CCCCC3)=NN12"
  IC50: "26.7 µM (active)"
- cpd-smiles: "O=C(COC(=O)c1ccc(S(=O)(=O)NCc2ccco2)cc1)Nc1ccc(Cl)cn1"
  IC50: "4.79 µM (active)"
- cpd-smiles: "C=CCOc1ccc(C=NNc2ccc(S(=O)(=O)Nc3ccccc3C(=O)O)cc2[N+](=O)[O-])cc1OC"
  IC50: "2 µM (active)"

# input What does the data say about its IC50? Entry: O=C1NN(c2ccccc2)C(=O)/C1=C/c1ccc(-c2cccc(C(=O)O)c2)o1
# output 11 µM (active)
